Reported inhibition at 5 µM values for the following compounds.
- Measured On: HIPK3 (Homo sapiens)
- Sequence (Q9H422 whole entry, species assumed): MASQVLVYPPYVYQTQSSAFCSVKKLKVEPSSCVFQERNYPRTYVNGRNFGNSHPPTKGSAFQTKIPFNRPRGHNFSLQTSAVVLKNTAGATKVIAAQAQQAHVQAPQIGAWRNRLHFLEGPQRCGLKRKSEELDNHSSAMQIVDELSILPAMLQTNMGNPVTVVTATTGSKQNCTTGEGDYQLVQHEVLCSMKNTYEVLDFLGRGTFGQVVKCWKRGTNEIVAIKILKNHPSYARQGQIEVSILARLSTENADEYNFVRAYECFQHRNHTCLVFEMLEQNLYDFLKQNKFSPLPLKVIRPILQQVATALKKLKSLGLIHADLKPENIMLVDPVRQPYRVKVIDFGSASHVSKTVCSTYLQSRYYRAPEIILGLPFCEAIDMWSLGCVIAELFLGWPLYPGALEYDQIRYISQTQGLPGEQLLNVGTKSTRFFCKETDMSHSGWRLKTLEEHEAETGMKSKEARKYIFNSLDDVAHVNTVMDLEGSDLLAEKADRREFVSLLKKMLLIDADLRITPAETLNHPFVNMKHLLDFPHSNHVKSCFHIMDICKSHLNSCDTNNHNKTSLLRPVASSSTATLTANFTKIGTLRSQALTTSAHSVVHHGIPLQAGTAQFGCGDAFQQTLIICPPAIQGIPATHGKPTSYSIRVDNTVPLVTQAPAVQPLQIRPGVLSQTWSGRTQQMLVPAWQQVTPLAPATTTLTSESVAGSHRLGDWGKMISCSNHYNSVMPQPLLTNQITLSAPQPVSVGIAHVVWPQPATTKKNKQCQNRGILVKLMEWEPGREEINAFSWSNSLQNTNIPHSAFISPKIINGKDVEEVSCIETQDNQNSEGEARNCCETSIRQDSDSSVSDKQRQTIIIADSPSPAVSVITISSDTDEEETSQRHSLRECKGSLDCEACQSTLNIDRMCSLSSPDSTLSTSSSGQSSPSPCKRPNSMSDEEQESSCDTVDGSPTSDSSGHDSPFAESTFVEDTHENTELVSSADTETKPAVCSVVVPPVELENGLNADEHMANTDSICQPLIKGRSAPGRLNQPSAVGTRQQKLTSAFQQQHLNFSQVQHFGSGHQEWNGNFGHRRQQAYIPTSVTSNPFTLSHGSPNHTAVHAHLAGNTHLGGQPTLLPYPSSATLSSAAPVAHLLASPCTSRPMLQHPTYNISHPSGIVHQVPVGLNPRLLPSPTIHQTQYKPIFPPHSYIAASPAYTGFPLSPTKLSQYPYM
- Experimental Details: Kinase panel (mobility shift)
- Assay type: biochemical

Solved cases (6 shown):
CNC(=O)c1cc(Oc2ccc(NC(=O)c3nc(OC)oc3-c3ccc(F)c(F)c3)cc2F)ccn1 | 50 to 79%
CNC(=O)c1cc(Oc2c(F)cc(NC(=O)c3nc(NC)sc3-c3ccc(F)cc3)cc2F)ccn1 | < 50%
CNC(=O)c1cc(Oc2ccc(NC(=O)c3nc(NC)oc3-c3ccc(F)cc3)cc2F)ccn1 | 50 to 79%
CSc1nc(C(=O)Nc2ccc(Oc3ccnc(C(=O)NCC(F)(F)F)c3)c(F)c2)c(-c2ccc(F)cc2)o1 | < 50%
CNC(=O)c1cc(Oc2ccc(NC(=O)c3nc(C4CC4)oc3-c3ccc(F)cc3)cc2F)ccn1 | 50 to 79%
CNC(=O)c1cc(Oc2ccc(NC(=O)c3nc(SC)oc3-c3ccc(F)s3)cc2F)ccn1 | < 50%

Briefly, inhibition at 5 µM measured for CNC(=O)c1cc(Oc2ccc(NC(=O)c3nc(SC)oc3-c3ccc(F)cc3F)cc2)ccn1 : < 50%

Briefly, inhibition at 5 µM measured for CNC(=O)c1cc(Oc2ccc(NC(=O)c3nc(SC)oc3-c3ccc(F)cc3F)cc2F)ccn1 : 50 to 79%

Briefly, inhibition at 5 µM measured for [2H]C([2H])([2H])NC(=O)c1cc(Oc2ccc(NC(=O)c3nc(SC)oc3-c3ccc(F)c(F)c3)cc2F)ccn1 : 50 to 79%

Briefly, inhibition at 5 µM measured for COc1nc(C(=O)Nc2ccc(Oc3ccnc(C(=O)NCC(F)(F)F)c3)c(F)c2)c(-c2ccc(F)cc2)o1 : < 50%

====

- Measured On: BRK (Homo sapiens)
- Sequence (Q13882 whole entry, species assumed): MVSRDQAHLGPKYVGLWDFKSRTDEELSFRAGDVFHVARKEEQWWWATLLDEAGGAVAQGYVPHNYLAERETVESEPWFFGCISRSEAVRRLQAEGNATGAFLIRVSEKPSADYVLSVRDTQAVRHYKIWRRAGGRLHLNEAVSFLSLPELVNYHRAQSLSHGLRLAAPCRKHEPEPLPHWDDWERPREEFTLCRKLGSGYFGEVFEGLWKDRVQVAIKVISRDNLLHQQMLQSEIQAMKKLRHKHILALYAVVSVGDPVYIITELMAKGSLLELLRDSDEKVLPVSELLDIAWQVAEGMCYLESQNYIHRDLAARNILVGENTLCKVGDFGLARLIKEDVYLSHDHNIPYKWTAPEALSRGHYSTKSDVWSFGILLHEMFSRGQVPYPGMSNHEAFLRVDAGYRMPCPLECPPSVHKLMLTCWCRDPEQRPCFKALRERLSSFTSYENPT
- Experimental Details: Kinase panel (mobility shift)
- Format: biochemical
Reported inhibition at 5 µM values for the following compounds.

Solved cases (3 shown):
CNC(=O)c1cc(Oc2ccc(NC(=O)c3nc(SC)oc3-c3ccc(OC)cc3)cc2)ccn1 [Compound 7] | < 50%
CSc1nc(C(=O)Nc2ccc(Oc3ccnc(C(=O)NC4CNC4)c3)c(F)c2)c(-c2ccc(F)cc2)o1 [Compound 29] | ≥ 95%
CNC(=O)c1cc(Oc2ccc(NC(=O)c3nc(OC)oc3-c3ccc(F)c(F)c3)cc2F)ccn1 [Compound 24] | < 50%

Moving on to the next compound.
Briefly, inhibition at 5 µM measured for CSc1nc(C(=O)Nc2ccc(Oc3ccnc(C(=O)NC4CCN(C)CC4)c3)c(F)c2)c(-c2ccc(F)cc2)o1 [Compound 42] : ≥ 95%

====

- Measured On: AXL (Homo sapiens, UniProt P30530)
- Sequence (P30530 26-894, species assumed): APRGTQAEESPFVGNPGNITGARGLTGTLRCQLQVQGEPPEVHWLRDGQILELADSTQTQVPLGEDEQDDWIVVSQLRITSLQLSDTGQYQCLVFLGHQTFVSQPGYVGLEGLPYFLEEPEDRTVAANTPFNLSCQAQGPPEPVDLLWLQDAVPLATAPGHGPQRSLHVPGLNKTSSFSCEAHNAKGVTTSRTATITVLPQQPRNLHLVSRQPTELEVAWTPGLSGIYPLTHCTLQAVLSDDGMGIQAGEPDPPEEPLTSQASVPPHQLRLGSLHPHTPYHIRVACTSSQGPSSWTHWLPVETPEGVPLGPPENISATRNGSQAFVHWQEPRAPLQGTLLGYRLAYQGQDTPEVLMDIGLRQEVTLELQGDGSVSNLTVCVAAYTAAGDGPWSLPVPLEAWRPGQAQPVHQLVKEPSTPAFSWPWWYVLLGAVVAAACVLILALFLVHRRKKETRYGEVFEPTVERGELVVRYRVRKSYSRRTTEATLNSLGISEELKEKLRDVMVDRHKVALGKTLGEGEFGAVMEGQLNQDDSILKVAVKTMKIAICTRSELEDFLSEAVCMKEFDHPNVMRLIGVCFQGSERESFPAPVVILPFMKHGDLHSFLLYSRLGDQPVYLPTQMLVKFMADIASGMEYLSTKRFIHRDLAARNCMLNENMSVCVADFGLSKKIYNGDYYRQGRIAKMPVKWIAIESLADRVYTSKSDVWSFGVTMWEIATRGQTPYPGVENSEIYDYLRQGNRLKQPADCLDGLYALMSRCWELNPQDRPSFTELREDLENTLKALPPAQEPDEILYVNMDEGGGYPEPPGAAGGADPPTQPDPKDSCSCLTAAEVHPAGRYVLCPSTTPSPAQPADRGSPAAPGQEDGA
- Experimental Details: Kinase panel (mobility shift)
- Format: biochemical
Quantity: inhibition at 5 µM

Solved cases (3 shown):
[2H]C([2H])([2H])NC(=O)c1cc(Oc2ccc(NC(=O)c3nc(SC)oc3-c3ccc(F)s3)cc2F)ccn1 | < 50%
COc1nc(C(=O)Nc2ccc(Oc3ccnc(C(=O)NC4COC4)c3)c(F)c2)c(-c2ccc(F)cc2)o1 | < 50%
CNC(=O)c1cc(Oc2ccc(NC(=O)c3nc(OC)oc3-c3ccc(F)c(F)c3)cc2F)ccn1 | < 50%

Param item: CNC(=O)c1cc(Oc2ccc(NC(=O)c3nc(NC)oc3-c3ccc(F)s3)cc2F)ccn1 ; param system: AXL (Homo sapiens, UniProt P30530); output inhibition at 5 µM: < 50%

Param item: CSc1nc(C(=O)Nc2ccc(Oc3ccnc(C(=O)NC4CNC4)c3)c(F)c2)c(-c2ccc(F)cc2)o1 ; param system: AXL (Homo sapiens, UniProt P30530); output inhibition at 5 µM: 50 to 79%

Param item: CSc1nc(C(=O)Nc2ccc(Oc3ccnc(N)c3Cl)c(F)c2)c(-c2ccc(F)cc2)o1 ; param system: AXL (Homo sapiens, UniProt P30530); output inhibition at 5 µM: < 50%

Param item: CSc1nc(C(=O)Nc2ccc(Oc3ccnc(C(=O)NCC(F)(F)F)c3)c(F)c2)c(-c2ccc(F)cc2)o1 ; param system: AXL (Homo sapiens, UniProt P30530); output inhibition at 5 µM: < 50%

Param item: CNC(=O)c1cc(Oc2ccc(NC(=O)c3nc(COC)oc3-c3ccc(F)cc3)cc2F)ccn1 ; param system: AXL (Homo sapiens, UniProt P30530); output inhibition at 5 µM: 50 to 79%

Param item: CSc1nc(C(=O)Nc2ccc(Oc3ccnc(C(=O)NC4COC4)c3)c(F)c2)c(-c2ccc(F)c(F)c2)o1 ; param system: AXL (Homo sapiens, UniProt P30530); output inhibition at 5 µM: < 50%

Param item: CNC(=O)c1cc(Oc2ccc(NC(=O)c3nc(SC(C)C)oc3-c3ccc(F)cc3)cc2F)ccn1 ; param system: AXL (Homo sapiens, UniProt P30530); output inhibition at 5 µM: 50 to 79%

Param item: CNC(=O)c1cc(Oc2ccc(NC(=O)c3nc(OC4CC4)oc3-c3ccc(F)cc3)cc2F)ccn1 ; param system: AXL (Homo sapiens, UniProt P30530); output inhibition at 5 µM: 80 to 89%

Param item: CNC(=O)c1cc(Oc2ccc(NC(=O)c3nc(S(C)(=O)=O)sc3-c3ccc(F)cc3)cc2F)ccn1 ; param system: AXL (Homo sapiens, UniProt P30530); output inhibition at 5 µM: 80 to 89%

Param item: CSc1nc(C(=O)Nc2ccc(Oc3cc4cnn(C)c4cc3Br)c(F)c2)c(-c2ccc(F)cc2)o1 ; param system: AXL (Homo sapiens, UniProt P30530); output inhibition at 5 µM: < 50%

Param item: CNC(=O)c1cc(Oc2ccc(NC(=O)c3nc(NC)oc3-c3ccc(F)cc3)cc2F)ccn1 ; param system: AXL (Homo sapiens, UniProt P30530); output inhibition at 5 µM: < 50%

Param item: CNC(=O)c1cc(Oc2ccc(NC(=O)c3nc(SC)oc3-c3ccc(F)c(F)c3)cc2)ccn1 ; param system: AXL (Homo sapiens, UniProt P30530); output inhibition at 5 µM: < 50%

====

- Measured On: UniProt Q9H422
- Experimental Details: Kinase panel (mobility shift)
- Assay type: biochemical
Reported inhibition at 5 µM values for the following compounds.

Solved cases (4 shown):
[2H]C([2H])([2H])NC(=O)c1cc(Oc2ccc(NC(=O)c3nc(SC)oc3-c3ccc(F)s3)cc2F)ccn1 [Compound 35] | < 50%
CNC(=O)c1cc(Oc2ccc(NC(=O)c3nc(COC)oc3-c3ccc(F)cc3)cc2F)ccn1 [Compound 30] | 90 to 94%
CNC(=O)c1cc(Oc2ccc(NC(=O)c3nc(SC(C)C)oc3-c3ccc(F)cc3)cc2F)ccn1 [Compound 34] | < 50%
CNC(=O)c1cc(Oc2ccc(NC(=O)c3nc(S(C)(=O)=O)sc3-c3ccc(F)cc3)cc2F)ccn1 [Compound 13] | 80 to 89%

Param item: CSc1nc(C(=O)Nc2ccc(Oc3ccnc(-c4cnn(C)c4)c3)c(F)c2)c(-c2ccc(F)cc2)o1 [Compound 11] ; param system: UniProt Q9H422; output inhibition at 5 µM: < 50%

Param item: CNC(=O)c1cc(Oc2ccc(NC(=O)c3nc(OC)oc3-c3ccc(F)cc3)cc2F)ccn1 [Compound 15] ; param system: UniProt Q9H422; output inhibition at 5 µM: 50 to 79%

Param item: CNC(=O)c1cc(Oc2ccc(NC(=O)c3nc(SC)oc3-c3ccc(Cl)s3)cc2)ccn1 [Compound 5] ; param system: UniProt Q9H422; output inhibition at 5 µM: < 50%

Param item: CSc1nc(C(=O)Nc2ccc(Oc3ccnc(C(=O)NC4CNC4)c3)c(F)c2)c(-c2ccc(F)cc2)o1 [Compound 29] ; param system: UniProt Q9H422; output inhibition at 5 µM: 80 to 89%

Param item: CSc1nc(C(=O)Nc2ccc(Oc3ccnc(N)c3Cl)c(F)c2)c(-c2ccc(F)cc2)o1 [Compound 1] ; param system: UniProt Q9H422; output inhibition at 5 µM: < 50%

====

- Measured On: TAOK3 (Homo sapiens, UniProt Q9H2K8)
- Sequence (Q9H2K8 whole entry, species assumed): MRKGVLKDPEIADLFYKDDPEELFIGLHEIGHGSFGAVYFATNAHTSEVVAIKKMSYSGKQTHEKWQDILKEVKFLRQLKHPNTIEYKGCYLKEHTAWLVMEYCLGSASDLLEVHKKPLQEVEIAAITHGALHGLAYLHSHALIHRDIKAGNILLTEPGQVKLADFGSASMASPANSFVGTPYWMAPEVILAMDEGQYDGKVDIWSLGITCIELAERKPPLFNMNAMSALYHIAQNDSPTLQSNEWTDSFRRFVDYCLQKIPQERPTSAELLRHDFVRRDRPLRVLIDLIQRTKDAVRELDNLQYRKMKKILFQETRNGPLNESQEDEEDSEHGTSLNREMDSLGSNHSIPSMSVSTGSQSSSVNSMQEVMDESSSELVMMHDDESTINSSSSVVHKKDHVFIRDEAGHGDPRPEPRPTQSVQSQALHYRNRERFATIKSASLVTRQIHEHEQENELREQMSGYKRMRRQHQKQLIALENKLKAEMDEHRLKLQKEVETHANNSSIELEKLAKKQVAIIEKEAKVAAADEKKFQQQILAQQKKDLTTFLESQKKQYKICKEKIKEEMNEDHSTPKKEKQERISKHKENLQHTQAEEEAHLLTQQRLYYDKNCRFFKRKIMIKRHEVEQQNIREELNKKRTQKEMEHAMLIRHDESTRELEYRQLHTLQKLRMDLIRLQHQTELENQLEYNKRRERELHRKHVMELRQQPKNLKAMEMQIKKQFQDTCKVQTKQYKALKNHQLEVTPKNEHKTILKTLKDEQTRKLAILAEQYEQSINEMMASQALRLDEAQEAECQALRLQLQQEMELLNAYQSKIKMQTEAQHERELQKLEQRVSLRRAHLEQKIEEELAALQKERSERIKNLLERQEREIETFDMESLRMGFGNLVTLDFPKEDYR
- Experimental Details: Kinase panel (mobility shift)
- Type: biochemical
Quantity: inhibition at 5 µM

Solved cases (3 shown):
CNC(=O)c1cc(Oc2ccc(NC(=O)c3nc(SC)oc3-c3ccc(Cl)s3)cc2)ccn1 [Compound 5] | < 50%
CNC(=O)c1ccc(Oc2ccc(NC(=O)c3nc(Cl)oc3-c3ccc(F)cc3)c(F)c2)cn1 [Compound 36] | < 50%
CNC(=O)c1cc(Oc2ccc(NC(=O)c3nc(SC)oc3-c3ccc(F)cc3F)cc2)ccn1 [Compound 6] | < 50%

Param item: CNC(=O)c1cc(Oc2ccc(NC(=O)c3nc(OCC(F)(F)F)oc3-c3ccc(F)cc3)cc2F)ccn1 [Compound 38] ; param system: TAOK3 (Homo sapiens, UniProt Q9H2K8); output inhibition at 5 µM: < 50%

Param item: CNC(=O)c1cc(Oc2ccc(NC(=O)c3nc(SC)oc3-c3ccc(F)c(F)c3)cc2)ccn1 [Compound 4] ; param system: TAOK3 (Homo sapiens, UniProt Q9H2K8); output inhibition at 5 µM: 50 to 79%

Param item: CSc1nc(C(=O)Nc2ccc(Oc3ccnc(C(=O)NCC(F)(F)F)c3)c(F)c2)c(-c2ccc(F)cc2)o1 [Compound 40] ; param system: TAOK3 (Homo sapiens, UniProt Q9H2K8); output inhibition at 5 µM: < 50%

Param item: CNC(=O)c1cc(Oc2ccc(NC(=O)c3nc(S(C)(=O)=O)sc3-c3ccc(F)cc3)cc2F)ccn1 [Compound 13] ; param system: TAOK3 (Homo sapiens, UniProt Q9H2K8); output inhibition at 5 µM: < 50%

Param item: CNC(=O)c1cc(Oc2ccc(NC(=O)c3nc(NC)oc3-c3ccc(F)cc3)cc2F)ccn1 [Compound 14] ; param system: TAOK3 (Homo sapiens, UniProt Q9H2K8); output inhibition at 5 µM: 90 to 94%

Param item: [2H]C([2H])([2H])NC(=O)c1cc(Oc2ccc(NC(=O)c3nc(SC)oc3-c3ccc(F)s3)cc2F)ccn1 [Compound 35] ; param system: TAOK3 (Homo sapiens, UniProt Q9H2K8); output inhibition at 5 µM: < 50%

Param item: CNC(=O)c1cc(Oc2ccc(NC(=O)c3nc(COC)oc3-c3ccc(F)cc3)cc2F)ccn1 [Compound 30] ; param system: TAOK3 (Homo sapiens, UniProt Q9H2K8); output inhibition at 5 µM: 80 to 89%

Param item: CNC(=O)c1cc(Oc2c(F)cc(NC(=O)c3nc(NC)sc3-c3ccc(F)cc3)cc2F)ccn1 [Compound 19] ; param system: TAOK3 (Homo sapiens, UniProt Q9H2K8); output inhibition at 5 µM: 50 to 79%

Param item: CSc1nc(C(=O)Nc2ccc(Oc3ccnc(C(=O)NC4COC4)c3)c(F)c2)c(-c2ccc(F)cc2)o1 [Compound 31] ; param system: TAOK3 (Homo sapiens, UniProt Q9H2K8); output inhibition at 5 µM: < 50%

Param item: CNC(=O)c1cc(Oc2ccc(NC(=O)c3nc(SC)oc3-c3ccc(F)s3)cc2F)ccn1 [Compound 16] ; param system: TAOK3 (Homo sapiens, UniProt Q9H2K8); output inhibition at 5 µM: < 50%

Param item: CNC(=O)c1cc(Oc2ccc(NC(=O)c3nc(OC)oc3-c3ccc(F)c(F)c3)cc2F)ccn1 [Compound 24] ; param system: TAOK3 (Homo sapiens, UniProt Q9H2K8); output inhibition at 5 µM: < 50%

Param item: CNC(=O)c1cc(Oc2ccc(NC(=O)c3nc(OC)oc3-c3ccc(F)s3)cc2F)ccn1 [Compound 25] ; param system: TAOK3 (Homo sapiens, UniProt Q9H2K8); output inhibition at 5 µM: < 50%
